The measurements presented in this section are drawn from patent US20240209001A1.

# System under test: JAK 1 (Homo sapiens (Human))
# Sequence (P23458 whole entry): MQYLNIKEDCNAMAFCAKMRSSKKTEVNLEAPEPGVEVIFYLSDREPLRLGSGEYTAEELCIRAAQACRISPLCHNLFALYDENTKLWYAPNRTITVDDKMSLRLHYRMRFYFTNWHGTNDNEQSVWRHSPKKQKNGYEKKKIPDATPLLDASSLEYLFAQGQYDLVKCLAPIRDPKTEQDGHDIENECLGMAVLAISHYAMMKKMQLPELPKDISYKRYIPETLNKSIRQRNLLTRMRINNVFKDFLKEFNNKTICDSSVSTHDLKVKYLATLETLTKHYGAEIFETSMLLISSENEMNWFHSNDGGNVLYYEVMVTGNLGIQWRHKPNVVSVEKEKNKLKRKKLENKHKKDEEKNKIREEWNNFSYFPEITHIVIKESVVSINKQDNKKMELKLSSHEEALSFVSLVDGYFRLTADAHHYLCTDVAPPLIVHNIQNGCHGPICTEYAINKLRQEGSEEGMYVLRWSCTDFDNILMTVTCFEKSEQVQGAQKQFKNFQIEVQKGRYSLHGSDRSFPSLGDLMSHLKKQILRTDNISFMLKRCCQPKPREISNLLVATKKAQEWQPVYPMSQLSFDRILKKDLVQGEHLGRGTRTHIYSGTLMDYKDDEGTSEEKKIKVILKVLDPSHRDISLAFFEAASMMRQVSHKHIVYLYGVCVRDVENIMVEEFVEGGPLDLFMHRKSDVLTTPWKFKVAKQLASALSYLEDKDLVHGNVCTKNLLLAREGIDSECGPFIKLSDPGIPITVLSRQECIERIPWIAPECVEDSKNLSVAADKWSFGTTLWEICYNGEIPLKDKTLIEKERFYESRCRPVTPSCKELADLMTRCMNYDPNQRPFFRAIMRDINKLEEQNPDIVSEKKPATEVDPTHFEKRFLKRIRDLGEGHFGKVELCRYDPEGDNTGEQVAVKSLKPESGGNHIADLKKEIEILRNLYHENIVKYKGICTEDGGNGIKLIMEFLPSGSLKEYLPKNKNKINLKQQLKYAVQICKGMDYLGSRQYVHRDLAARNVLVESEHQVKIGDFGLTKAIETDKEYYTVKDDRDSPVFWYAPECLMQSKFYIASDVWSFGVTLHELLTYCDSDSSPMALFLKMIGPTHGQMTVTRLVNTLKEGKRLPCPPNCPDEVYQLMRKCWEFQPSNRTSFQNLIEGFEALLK
# Assay notes: Biochemical potency on JAK1, TR-FRET LANCE Ultra kinase assay (compounds 1-92)
# Experimental conditions: ATP at Km, read-out: JAK1 inhibitory activity (pIC50 class) (converted)
Each entry below carries its reported IC50.

Example compounds with recorded IC50:
[
  {
    "Compound": "COc1cc(C(=O)Nc2ccccc2)ccc1-n1nc(C)c2cnc(-c3cnn4cccnc34)cc21 [Example 20]",
    "IC50": "5.01 to 50.1 nM"
  },
  {
    "Compound": "COc1cc(NS(C)(=O)=O)ccc1-n1nc(C(=O)NCCN(C)C)c2cnc(-c3cnn4cccnc34)cc21 [Example 44]",
    "IC50": "≤ 5.01 nM"
  },
  {
    "Compound": "CNC(=O)Nc1ccc(-n2nc(C)c3cnc(-c4cnn5cccnc45)cc32)c(OC)c1 [Example 18]",
    "IC50": "5.01 to 50.1 nM"
  },
  {
    "Compound": "COC(=O)NCc1ccc(-n2nc(C)c3cnc(-c4cnn5cccnc45)cc32)c(OC)c1 [Example 69]",
    "IC50": "> 50.1 nM"
  },
  {
    "Compound": "COc1cc(NC(=O)c2ccccc2)ccc1-n1nc(NCCN(C)C)c2cnc(-c3cnn4cccnc34)cc21 [Example 75]",
    "IC50": "5.01 to 50.1 nM"
  }
]

Q: Name the recorded IC50 for COc1cc(NS(C)(=O)=O)ccc1-n1nc(NCCCNC(=O)OC(C)(C)C)c2cnc(-c3cnn4cccnc34)cc21 [Example 21] .
Ans: ≤ 5.01 nM

Q: Name the recorded IC50 for COc1cc(NS(C)(=O)=O)ccc1-n1nc(N)c2cnc(-c3cnn4cccnc34)cc21 [Example 79] .
Ans: ≤ 5.01 nM

====

# System under test: JAK 3 (Homo sapiens (Human))
# Sequence (P52333 whole entry): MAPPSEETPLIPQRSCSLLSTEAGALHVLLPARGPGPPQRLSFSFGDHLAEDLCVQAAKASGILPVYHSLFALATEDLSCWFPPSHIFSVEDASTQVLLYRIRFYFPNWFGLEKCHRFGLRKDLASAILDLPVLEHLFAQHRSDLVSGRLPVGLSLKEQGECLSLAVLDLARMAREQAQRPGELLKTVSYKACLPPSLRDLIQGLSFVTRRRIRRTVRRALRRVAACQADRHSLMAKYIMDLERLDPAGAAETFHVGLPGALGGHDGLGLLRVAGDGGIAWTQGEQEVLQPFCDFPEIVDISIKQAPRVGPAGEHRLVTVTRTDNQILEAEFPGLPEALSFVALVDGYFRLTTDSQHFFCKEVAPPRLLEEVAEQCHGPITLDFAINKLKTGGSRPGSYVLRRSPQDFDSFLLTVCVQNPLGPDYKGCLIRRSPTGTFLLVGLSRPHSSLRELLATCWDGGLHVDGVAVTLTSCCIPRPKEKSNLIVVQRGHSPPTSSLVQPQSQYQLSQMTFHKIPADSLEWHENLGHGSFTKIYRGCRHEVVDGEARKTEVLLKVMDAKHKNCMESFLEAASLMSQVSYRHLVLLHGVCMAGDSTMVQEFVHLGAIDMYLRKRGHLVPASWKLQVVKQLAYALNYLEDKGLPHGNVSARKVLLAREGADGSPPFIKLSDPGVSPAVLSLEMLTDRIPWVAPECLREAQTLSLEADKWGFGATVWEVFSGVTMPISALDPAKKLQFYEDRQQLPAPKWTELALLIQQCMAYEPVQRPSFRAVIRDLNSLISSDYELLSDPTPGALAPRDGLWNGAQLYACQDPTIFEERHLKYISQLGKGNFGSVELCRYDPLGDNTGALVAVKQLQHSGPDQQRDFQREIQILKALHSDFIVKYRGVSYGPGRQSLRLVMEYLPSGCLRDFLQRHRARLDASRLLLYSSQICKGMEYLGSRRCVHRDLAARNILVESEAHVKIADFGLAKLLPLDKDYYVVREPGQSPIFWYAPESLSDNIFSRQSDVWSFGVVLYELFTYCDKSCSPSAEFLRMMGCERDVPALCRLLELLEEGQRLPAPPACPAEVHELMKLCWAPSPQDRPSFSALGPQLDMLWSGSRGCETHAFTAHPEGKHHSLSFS
# Assay notes: Biochemical potency on JAK3, TR-FRET LANCE Ultra kinase assay (compounds 1-92)
# Experimental conditions: ATP at Km, read-out: JAK3 inhibitory activity (pIC50 class) (converted)
Each entry below carries its reported IC50.

Example compounds with recorded IC50:
[
  {
    "Compound": "CNS(=O)(=O)c1ccc(-n2nc(C)c3cnc(-c4cnn5cccnc45)cc32)c(OC)c1",
    "Experimental value": "≤ 5.01 nM"
  },
  {
    "Compound": "COc1cc(NS(=O)(=O)C2COC2)ccc1-n1nc(C)c2cnc(-c3cnn4cccnc34)cc21",
    "Experimental value": "≤ 5.01 nM"
  },
  {
    "Compound": "COc1cc(NS(C)(=O)=O)ccc1-n1nc(N(C)CCN2CCOCC2)c2cnc(-c3cnn4cccnc34)cc21",
    "Experimental value": "5.01 to 50.1 nM"
  },
  {
    "Compound": "COc1cc(NS(C)(=O)=O)ccc1-n1nc(NCCN2CCOCC2)c2cnc(-c3cnn4cccnc34)cc21",
    "Experimental value": "≤ 5.01 nM"
  }
]

Q: Name the recorded IC50 for COc1cc(NS(=O)(=O)CCC(N)=O)ccc1-n1nc(C)c2cnc(-c3cnn4cccnc34)cc21 .
Ans: ≤ 5.01 nM

Q: Name the recorded IC50 for COc1cc(NS(C)(=O)=O)ccc1-n1nc(NCCN2CCCCC2)c2cnc(-c3cnn4cccnc34)cc21 .
Ans: ≤ 5.01 nM

Q: Name the recorded IC50 for COc1cc(CNS(C)(=O)=O)ccc1-n1nc(NCCN(C)C)c2cnc(-c3cnn4cccnc34)cc21 .
Ans: ≤ 5.01 nM

Q: Name the recorded IC50 for COc1cc(NS(C)(=O)=O)ccc1-n1nc(NCCO)c2cnc(-c3cnn4cccnc34)cc21 .
Ans: ≤ 5.01 nM

Q: Name the recorded IC50 for COc1cc(CN)ccc1-n1nc(C)c2cnc(-c3cnn4cccnc34)cc21 .
Ans: > 50.1 nM

Q: Name the recorded IC50 for COc1cc(NS(C)(=O)=O)ccc1-n1nc(NCCN2CCOCC2)c2cnc(-c3cnc4cccnn34)cc21 .
Ans: ≤ 5.01 nM
